System: LXRa homodimer (NR concentration 270 nM)
assay: PBM binding z-score (relative to random genomic background probes); higher = stronger binding; sequences stand for … in GC…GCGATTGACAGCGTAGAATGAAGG
Each record's class is read off its PBM binding z-score using these ranges: category 1 = under 0.2, category 2 = from 0.2 up to 1, category 3 = 1 and over

Enquiry: # bin label for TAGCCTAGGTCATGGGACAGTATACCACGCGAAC
Return: category 2

Enquiry: # bin label for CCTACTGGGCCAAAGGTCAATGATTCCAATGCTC
Return: category 3

Enquiry: # bin label for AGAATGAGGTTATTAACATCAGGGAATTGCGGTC
Return: category 1

Enquiry: # bin label for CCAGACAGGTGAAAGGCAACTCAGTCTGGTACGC
Return: category 1

Enquiry: # bin label for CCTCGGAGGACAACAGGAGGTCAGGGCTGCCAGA
Return: category 3

Enquiry: # bin label for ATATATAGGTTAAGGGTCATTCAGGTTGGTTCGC
Return: category 3

Enquiry: # bin label for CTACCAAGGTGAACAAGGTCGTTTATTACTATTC
Return: category 2

Enquiry: # bin label for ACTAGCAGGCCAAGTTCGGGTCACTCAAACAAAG
Return: category 2

Enquiry: # bin label for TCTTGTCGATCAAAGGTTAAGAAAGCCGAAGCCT
Return: category 1

Enquiry: # bin label for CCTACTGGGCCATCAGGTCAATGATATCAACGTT
Return: category 2

Enquiry: # bin label for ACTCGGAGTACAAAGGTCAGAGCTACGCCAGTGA
Return: category 3

Enquiry: # bin label for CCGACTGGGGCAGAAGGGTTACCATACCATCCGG
Return: category 1

Origin of the recorded values: the supplement of paper PMC6555819
